From: paper PMC8802628

Molecular target: PFKL (Homo sapiens)
Construct: made in house; host or cells: Sf9 insect cells (baculovirus, Bac-to-Bac)
Sequence (P17858 whole entry): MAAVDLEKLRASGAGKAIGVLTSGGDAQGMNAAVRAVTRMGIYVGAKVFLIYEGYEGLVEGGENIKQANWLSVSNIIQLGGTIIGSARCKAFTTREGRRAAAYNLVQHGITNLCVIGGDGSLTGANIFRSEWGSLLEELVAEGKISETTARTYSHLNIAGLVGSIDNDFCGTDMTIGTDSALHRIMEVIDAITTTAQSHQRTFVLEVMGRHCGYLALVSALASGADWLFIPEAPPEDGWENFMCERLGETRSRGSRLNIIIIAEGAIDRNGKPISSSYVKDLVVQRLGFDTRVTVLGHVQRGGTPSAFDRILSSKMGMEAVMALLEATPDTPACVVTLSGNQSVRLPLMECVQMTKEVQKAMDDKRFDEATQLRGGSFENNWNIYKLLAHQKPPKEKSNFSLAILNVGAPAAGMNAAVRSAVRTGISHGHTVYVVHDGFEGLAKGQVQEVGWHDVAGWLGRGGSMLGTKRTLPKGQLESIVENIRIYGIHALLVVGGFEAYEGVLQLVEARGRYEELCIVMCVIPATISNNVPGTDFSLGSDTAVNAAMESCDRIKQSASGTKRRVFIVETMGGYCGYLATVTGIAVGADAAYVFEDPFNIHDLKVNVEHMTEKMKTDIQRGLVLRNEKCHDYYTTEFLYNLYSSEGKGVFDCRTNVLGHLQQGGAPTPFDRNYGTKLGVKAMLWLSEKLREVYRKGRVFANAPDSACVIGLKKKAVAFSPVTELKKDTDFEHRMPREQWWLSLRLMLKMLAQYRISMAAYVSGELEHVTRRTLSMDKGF
Assay: Recombinant PFKL activity assay (relief of ATP inhibition)
Assay type: biochemical
Conditions: with 50 μM AMP; pH 7.5, 4.0 mM F6P, 3.1 mM ATP; read-out: EC50, NA-11
From the text: Recombinant N-terminal His-tagged human PFKL (NP_002617), PFKM (NP_000280), and PFKP (NM_002627.4) were generated as described ([Webb et al., 2015], [2017]). Point mutants of PFK1 were generated using the QuikChange Lightning kit (Aligent). His-tagged PFK1 was expressed and purified as described with slight modifications ([Webb et al., 2015], [2017]). […] Protein was quantified using a Bradford Protein Assay kit (ThermoFisher Scientific), and aliquotes frozen in liquid nitrogen for storage at −80°C. […]
pEC50: −log10 of the molar value.

[
  {
    "line.notation": "CC(=O)Nc1ccc2c(c1)OCc1cc(-c3ccccc3C#CCCCO)nn1C2",
    "pEC50": 7.91
  }
]
